Where these numbers come from: paper PMC10397247

Target: T1, P3mS
T1 chain: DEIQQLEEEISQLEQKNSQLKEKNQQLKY
Assay: two-hybrid library CCNG1;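 also: natural log of median RNA to DNA barcode read ratio; higher means stronger binding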
Catalogue of binders with associated interaction score

Binder: DKNSQLKEENSQLEEKIQQLKEKIQQLKY [P10mS]
interaction score: -1.79
--
Binder: DENQQLEQEISQLEQEISQLEQKNSQLKY [P11mS]
interaction score: -0.646
--
Binder: DEIQQLEEEISQLEQKNSQLKEKNQQLKY [P3mS]
interaction score: -1.02
--
Binder: DKNSQLKEKISQLKEKIQQLKEENQQLEY [P12mS]
interaction score: 0.362
